- system name: SARS-CoV-2 Beta (B.1.351) RBD (SARS-CoV-2 Beta (B.1.351), strain)
- test details: BLI
pKd: −log10 of the molar value.
metric name: pKd

Write down pKd measured for item C092 (antibody, V domains shown) VH: QVQLVQSGAEVKKPGSSVKVSCKASGGSFTNHFISWVRQAPGQGLEWMGRIIPILGTANYAQNFQGRVMMTADKSTSTAYMELSSLRSEDTAVYYCARDSGYSGYGSTYYMDVWGKGTTVTVSS VL: QSVLTQPPSVSGAPGQRVTISCTGSNSNIGAGYDVHWYQQLPGAAPKLLIYGNNNRPSGVPDRFSGSKSDTSASLAITGLQVEDEADYYCQSYDSSLSDSVFGSGTKVTVL
> 9.52

Supply reported pKd belonging to this binder: C807 (antibody, V domains shown) VH: QVQLVQSGAEAKKPGSSVKVSCKASGGTFKSYIINWVRQAPGQGLEWMGEIIPIFGTANYAQKFQGRVTSTADESTSTAYMELSSLKSEDTAVYYCARGRGYSGYGASYYFDYWGQGTLVTVSS VL: QSVLTQPPSVSGAPGQRVTISCTGSNSNIGAGYDVHWYQQLPGTAPKLLIYANSNRPSGVPDRFSGSKSGTSASLAITGLQAEDEADYYCQSYDSGLSGSVFGGGTKLTVL
> 9.52

Quick one: give measured pKd for BD56-104 (antibody, V domains shown) VH: QVQLVQSGAEVKTPGSSVKVSCKASGGTFGSHSITWVRQAPGQGLEWMGRVIPILGIPDFAESFQGRVAITADRSTSTAHMELSRLRSEDTAVYYCARDVGYSGSGSSNYFDSWGQGTLVTVSS VL: QSVLTQPPSVSGAPGQRVTISCTGSNSNIGAGYDVHWYRQLPGTAPKLLIYVNNNRPSGVPDRFSGSRSGASASLAITGLQAEDEAEYYCQSYDSSLSGSIFGGGTKLTVL
> 9.52
